// data source = patent US5602099A

- Target Of Assay: δ opioid receptors (Mus musculus, UniProt P32300)
- Construct: Bioassays Using Isolated Organ Preparations; from tissue; host or cells: mouse vas deferens (isolated organ)
- Sequence (P32300 whole entry): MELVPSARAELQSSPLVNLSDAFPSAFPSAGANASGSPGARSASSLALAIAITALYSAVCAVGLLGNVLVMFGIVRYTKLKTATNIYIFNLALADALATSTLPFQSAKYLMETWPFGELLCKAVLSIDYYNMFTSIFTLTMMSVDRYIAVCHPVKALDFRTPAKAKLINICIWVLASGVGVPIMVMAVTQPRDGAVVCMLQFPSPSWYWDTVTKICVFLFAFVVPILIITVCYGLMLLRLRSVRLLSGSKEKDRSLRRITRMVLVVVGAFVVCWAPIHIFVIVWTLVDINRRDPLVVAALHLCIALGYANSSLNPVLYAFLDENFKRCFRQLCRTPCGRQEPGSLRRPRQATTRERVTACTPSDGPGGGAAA
- Protocol: Mouse vas deferens (MVD) bioassay, antagonism of electrically evoked contraction inhibition by δ-selective agonists
- Assay type: tissue-based
- Condition Description: Ke (nM) against [D-Ala2]deltorphin I, MVD assay; δ agonist [D-Ala2]deltorphin I; means of 3-8 determinations
Peptide text beside a SMILES is read from it.
Readout Kind: Kb (nM)
Give bare numbers, in nM.

Molecule	Kb [nM]
N[C@@H](Cc1ccc(O)c(Br)c1)C(=O)N1Cc2ccccc2C[C@H]1C(=O)N[C@@H](Cc1ccccc1)C(=O)N[C@@H](Cc1ccccc1)C(=O)O [HTyr(3-Br)TicPhePheOH, H-Tyr(3-Br)-Tic-Phe-Phe-OH] (HELM PEPTIDE1{[N[C@@H](Cc1ccc(O)c(Br)c1)C(=O)[*:2]].[Tic].F.F}$$$$V2.0)	23.9

stdin: If you can, please state the reported Kb value of N[C@@H](Cc1ccc(O)cc1)C(=O)N1Cc2ccccc2C[C@H]1C(=O)N[C@@H](Cc1c[nH]c2ccccc12)C(=O)O [HTyrTicTrpOH] (HELM PEPTIDE1{Y.[Tic].W}$$$$V2.0) .
stdout: 5.36
